Values were extracted from patent US20240425524A1.

Assignment: determine reported log10 of EC50 for the given compounds.
# measurement.target: RIPK1 (Homo sapiens (Human))
# Sequence (Q13546 1-327): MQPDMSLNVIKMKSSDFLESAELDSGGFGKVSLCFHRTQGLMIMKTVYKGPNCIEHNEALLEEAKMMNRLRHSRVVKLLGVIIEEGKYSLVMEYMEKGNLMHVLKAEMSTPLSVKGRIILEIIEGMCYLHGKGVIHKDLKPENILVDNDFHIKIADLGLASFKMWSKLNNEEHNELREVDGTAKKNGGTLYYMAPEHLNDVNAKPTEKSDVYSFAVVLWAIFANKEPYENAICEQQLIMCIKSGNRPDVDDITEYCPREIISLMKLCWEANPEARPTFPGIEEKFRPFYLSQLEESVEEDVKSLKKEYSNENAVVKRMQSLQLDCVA
# assay.info: RIPK1-ADP-Glo Enzymatic Assay
# test.parameters: recombinant GST-RIPK1 kinase domain (residues 1-327), 25 nM, ten-point titration, 30 minutes pre-incubation
Friendly reminder: values = log10 of EC50, unit nM.

Examples with answers:
compound | measurement.target | log10 of EC50
O=C1N2[C@H](c3cc(F)cc(F)c3)CCN2CC12CCN(c1cccc(C(F)(F)F)n1)CC2 [Example 1.63] | RIPK1 (Homo sapiens (Human)) | 1.92
O=C1N2[C@H](c3cc(F)cc(F)c3)CCN2CC12CCN(c1cc(C(F)F)ncn1)CC2 [Example 1.7] | RIPK1 (Homo sapiens (Human)) | 1.59
O=C1N2[C@H](c3cc(F)cc(F)c3)CCN2CC12CCN(c1cc(-c3cnn(C(F)F)c3)ncn1)CC2 [Example 1.87] | RIPK1 (Homo sapiens (Human)) | 0.78
O=C1N2[C@H](c3cc(F)cc(F)c3)CCN2CC12CCN(c1cnc(Cl)cn1)CC2 [Example 1.42] | RIPK1 (Homo sapiens (Human)) | 1.93

Fill in log10 of EC50 for each of the 7 compounds listed.
1. N#Cc1ccnc(N2CCC3(CC2)CN2CC[C@@H](c4cc(F)cc(F)c4)N2C3=O)n1 [Example 1.75]
2. O=C1N2[C@H](c3cc(F)cc(F)c3)CCN2CC12CCN(c1cc(F)ccn1)CC2 [Example 1.3]
3. CNC(=O)c1cc(N2CCC3(CC2)CN2CC[C@@H](c4cc(F)cc(F)c4)N2C3=O)ncn1 [Example 1.86]
4. CSc1cc(N2CCC3(CC2)CN2CC[C@@H](c4cc(F)cc(F)c4)N2C3=O)ncn1 [Example 1.14]
5. COc1ccnc(N2CCC3(CC2)CN2CC[C@@H](c4cc(F)cc(F)c4)N2C3=O)n1 [Example 1.95]
6. CC(=O)c1cnc(N2CCC3(CC2)CN2CC[C@@H](c4cc(F)cc(F)c4)N2C3=O)cc1Cl [Example 1.62]
7. N#Cc1ccc(N2CCC3(CC2)CN2CC[C@@H](c4cc(F)cc(F)c4)N2C3=O)c2ccnn12 [Example 2.2]

**Result**
1. 1.69
2. 1.28
3. 2.74
4. 1.23
5. 1.93
6. 1.30
7. 0.95

# map each compound to its log10 of EC50
1. O=C1N2[C@H](c3cc(F)cc(F)c3)CCN2CC12CCN(c1ncnc3scnc13)CC2 [Example 3.1]
2. O=C1N2[C@H](c3cc(F)cc(F)c3)CCN2CC12CCN(c1ncc(F)c(C(F)F)n1)CC2 [Example 1.57]
3. Cc1ccc(F)cc1C(=O)N1CCC2(CC1)CN1CC[C@@H](c3cc(F)cc(F)c3)N1C2=O [Example 4.13]
4. COc1nc(OC)nc(N2CCC3(CC2)CN2CC[C@@H](c4cc(F)cc(F)c4)N2C3=O)n1 [Example 1.31]
5. O=C1N2[C@H](c3cc(F)cc(F)c3)CCN2CC12CCN(c1cncc(Cl)n1)CC2 [Example 1.40]
6. COc1ccc(F)cc1C(=O)N1CCC2(CC1)CN1CC[C@@H](c3cc(F)cc(F)c3)N1C2=O [Example 4.14]

**Result**
1.38
1.41
2.53
2.45
2.61
2.59

For every listed record, write down its log10 of EC50.
1. CCc1nccc(N2CCC3(CC2)CN2CC[C@@H](c4cc(F)cc(F)c4)N2C3=O)n1 [Example 1.20]
2. Cc1ccn(-c2ccnc(N3CCC4(CC3)CN3CC[C@@H](c5cc(F)cc(F)c5)N3C4=O)c2)n1 [Example 2.5]
3. O=C1N2[C@H](c3cc(F)cc(F)c3)CCN2CC12CCN(c1cc(F)ncc1F)CC2 [Example 1.9]
4. O=C1N2[C@H](c3cc(F)cc(F)c3)CCN2CC12CCN(c1ccc(Cl)c3ccnn13)CC2 [Example 8.1]

**Result**
2.20
2.07
1.57
0.85
